- Test system: HCV pseudoparticle (HCVpp; JFH1 genotype 2a, Con1 genotype 1b) entry into Huh-7.5
- Protocol details: HCVpp cell entry assay
- Condition context: Hepatitis C virus, GETYPE1B|GETYPE2A, Huh7.5, 72 h, read-out: concentration of 50% entry inhibition
pIC50: −log10 of the molar value.
Property name: pIC50

# lookup: pIC50 of C=CC1CC1(NC(=O)C12CC(NC(=O)c3ccc(C#N)cc3)(C1)C2)C(=O)Nc1ccc(C(=O)Nc2ccc(C(=O)Nc3ccc(C(=O)O)cc3)c(O)c2OC(C)C)cc1 (stereo not shown)
~5.48

====

- Tested on: HEK293 (human, kidney)
- Protocol details: MTT cytotoxicity HEK293
- Assay type: cell-based
- Condition context: HEK293, 72 h, read-out: IC50 HEK293 (human, kidney)
pIC50: −log10 of the molar value.
Property name: pIC50

# lookup: pIC50 of CC(C)Oc1c(NC(=O)c2ccc(NC(=O)[C@H](CC(N)=O)NC(=O)c3ccc(NC(=O)c4ccc(C#N)cc4)cc3)cc2)ccc(C(=O)Nc2ccc(C(=O)O)cc2)c1O [CN-DM-861]
< 4.70
